Recorded values, source patent US20230212121A1.

Molecular target: norepinephrine transporter (NET) (Homo sapiens)
Construct: expressed in transfected cells; host or cells: HEK-293
Sequence (P23975 whole entry, species assumed): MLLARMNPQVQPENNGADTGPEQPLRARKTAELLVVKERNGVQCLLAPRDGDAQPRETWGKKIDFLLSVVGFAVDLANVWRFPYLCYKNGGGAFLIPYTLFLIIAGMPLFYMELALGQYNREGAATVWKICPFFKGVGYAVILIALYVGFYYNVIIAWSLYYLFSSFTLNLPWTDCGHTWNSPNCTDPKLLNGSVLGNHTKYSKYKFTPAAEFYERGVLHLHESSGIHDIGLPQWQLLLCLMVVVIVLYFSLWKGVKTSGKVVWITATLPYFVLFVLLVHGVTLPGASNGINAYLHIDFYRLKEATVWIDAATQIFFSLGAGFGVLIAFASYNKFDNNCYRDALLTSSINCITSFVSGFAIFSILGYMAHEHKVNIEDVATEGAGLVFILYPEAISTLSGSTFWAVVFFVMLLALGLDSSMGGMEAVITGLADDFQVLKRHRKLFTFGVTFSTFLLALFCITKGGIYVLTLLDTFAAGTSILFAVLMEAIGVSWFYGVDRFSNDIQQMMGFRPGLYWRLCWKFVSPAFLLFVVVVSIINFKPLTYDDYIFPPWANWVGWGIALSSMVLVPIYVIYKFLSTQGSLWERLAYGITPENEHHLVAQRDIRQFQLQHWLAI
Assay: Norepinephrine reuptake inhibition, [3H]-NE, HEK-293 cells transfected with NE transporter cDNA
Assay type: cell-based
Conditions: compound 1 μM; [3H]-NE; relative to control without compound = 100%; lower value = more inhibition
Parameter: Triple reuptake inhibition (Ratio %) NET

Sample answers from the record:
Problem: Identify Triple reuptake inhibition (Ratio %) NET associated with the compound O=S(=O)(NCCN1CCN(Cc2ccccc2)CC1)c1cccc2ccccc12
Solution: 87.27

Problem: Identify Triple reuptake inhibition (Ratio %) NET associated with the compound CCCCOc1ccc(S(=O)(=O)NCCCN2CCC(Cc3ccc(F)c(F)c3)CC2)cc1
Solution: 26.67

Problem: Identify Triple reuptake inhibition (Ratio %) NET associated with the compound O=S(=O)(NCCCN1CCN(c2ccc(Cl)cc2)CC1)c1ccc2ccccc2n1
Solution: 64.45

(1) CCCCOc1ccc(S(=O)(=O)NCCCN2CCC(c3cccc(Cl)c3Cl)CC2)cc1
(2) O=S(=O)(NCCCN1CCC(Cc2ccccc2)CC1)c1ccc(-c2ccc(Cl)cc2)cc1
(3) O=S(=O)(NCCCN1CCC(Cc2ccccc2)CC1)c1ccc(OC(F)(F)F)cc1
(4) O=S(=O)(NCCCN1CCC(Cc2ccccc2)CC1)c1ccc2ccccc2n1
Problem: Could you please order the items by Triple reuptake inhibition (Ratio %) NET, going from the lowest number to the highest? Field: ranking. Enter the labels in the order requested.
Solution: 3, 4, 2, 1

(1) O=S(=O)(NCCCN1CCC(c2ccccc2)CC1)c1cccc2ccccc12
(2) CCCCOc1ccc(S(=O)(=O)NCCN2CCC(c3c[nH]c4ccc(C)cc34)CC2)cc1
Problem: Endpoint returns whichever of 1 and 2 has the numerically higher Triple reuptake inhibition (Ratio %) NET. # answer = label of selected item
Solution: 2

----------
Molecular target: dopamine transporter (DAT) (Homo sapiens)
Construct: expressed in transfected cells; host or cells: HEK-293
Sequence (Q01959 whole entry, species assumed): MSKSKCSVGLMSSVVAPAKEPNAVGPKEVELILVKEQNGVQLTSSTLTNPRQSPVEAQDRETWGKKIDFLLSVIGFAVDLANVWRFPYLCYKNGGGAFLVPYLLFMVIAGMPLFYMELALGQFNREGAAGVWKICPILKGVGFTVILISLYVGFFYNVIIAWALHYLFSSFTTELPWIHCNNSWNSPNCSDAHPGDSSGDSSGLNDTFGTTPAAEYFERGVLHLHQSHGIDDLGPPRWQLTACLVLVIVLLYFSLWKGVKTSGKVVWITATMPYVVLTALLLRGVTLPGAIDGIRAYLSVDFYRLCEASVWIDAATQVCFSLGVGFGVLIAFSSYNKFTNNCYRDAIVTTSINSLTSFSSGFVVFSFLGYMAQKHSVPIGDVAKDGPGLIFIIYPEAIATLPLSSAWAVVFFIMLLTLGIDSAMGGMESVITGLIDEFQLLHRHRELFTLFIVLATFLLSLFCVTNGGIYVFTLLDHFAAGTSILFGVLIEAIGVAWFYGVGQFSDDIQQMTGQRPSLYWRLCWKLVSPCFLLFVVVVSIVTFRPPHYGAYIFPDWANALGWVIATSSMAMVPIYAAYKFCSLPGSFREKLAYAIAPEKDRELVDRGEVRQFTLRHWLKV
Assay: Dopamine reuptake inhibition, [3H]-DA, HEK-293 cells transfected with dopamine transporter cDNA
Assay type: cell-based
Conditions: compound 1 μM; 20-30 nM [3H]-DA; relative to control without compound = 100%; lower value = more inhibition
Parameter: Triple reuptake inhibition (Ratio %) DAT

Problem: Identify Triple reuptake inhibition (Ratio %) DAT associated with the compound O=S(=O)(NCCN1CCN(c2ccc(Cl)cc2)CC1)c1cccc2ccccc12 [Example 51]
Solution: 68.53

Problem: Identify Triple reuptake inhibition (Ratio %) DAT associated with the compound O=S(=O)(NCCN1CCC(Cc2ccccc2)CC1)c1cccc2ccccc12 [Example 39]
Solution: 31.26

Problem: Identify Triple reuptake inhibition (Ratio %) DAT associated with the compound O=S(=O)(NCCN1CCN(Cc2ccccc2)CC1)c1ccc2ccccc2c1 [Example 46]
Solution: 83.08

(I) CCCCOc1ccc(S(=O)(=O)NCCCN2CCC(Cc3ccc(Cl)cc3)CC2)cc1 [Example 28]
(II) O=S(=O)(NCCN1CCC(c2ccccc2)CC1)c1ccc(-c2ccccc2)cc1 [Example 44]
Problem: Endpoint returns whichever of I and II has the numerically higher Triple reuptake inhibition (Ratio %) DAT. # answer = label of selected item
Solution: I
(I: 94.53%, II: 37.93%)

(A) O=S(=O)(NCCN1CCN(Cc2ccccc2)CC1)c1cccc2ccccc12 [Example 47]
(B) O=S(=O)(NCCCCN1CCC(CCCc2ccccc2)CC1)c1ccc(-c2ccccc2)cc1 [Example 79]
Problem: Endpoint returns whichever of A and B has the numerically higher Triple reuptake inhibition (Ratio %) DAT. # answer = label of selected item
Solution: A
(A: 83.08%, B: 20.60%)
